List of IC50 values.
tested on: human breast cancer cells (1590); test: MTT tumor cell proliferation inhibition test, 1590; format: cell-based; conditions: 48 hours treatment, 1590 cells, read-out: Half Inhibitory Concentration IC50, 1590
parameter measured: IC50 (µM)

molecule="O=C(/C=C\\c1ccc(O)cc1)OC1CCN2[C@@H]3C[C@@H](C[C@@H]2C1)N1CCCC[C@@H]1C3 (stereo partly drawn) [Compound B]" subject_of_test="human breast cancer cells (1590)" units=µM readout_qualifier=> assay_value=100
molecule="Nc1ccn([C@@H]2O[C@H](CO)[C@@H](O)[C@@H]2O)c(=O)n1 [Ara-C, cytarabine, reference compound]" subject_of_test="human breast cancer cells (1590)" units=µM readout_qualifier== assay_value=76.3
molecule="O=C(/C=C\\c1ccccc1)OC1CCN2[C@@H]3C[C@@H](C[C@@H]2C1)N1CCCC[C@@H]1C3 (stereo partly drawn) [Compound A]" subject_of_test="human breast cancer cells (1590)" units=µM readout_qualifier== assay_value=32
